Reference source: PubChem BioAssay (NCI)

Tested on: RXF-631 renal
Assay: NCI tumour cell line growth inhibition, 48 h
Parameter Measured: TGI

Compound	Parameter Measured	Obs Value
COc1cc2c(cc1OC)C(Cl)C(c1cc(OC)c(OC)c(OC)c1)=C2Cl (configuration not stated)	TGI	38.2 µM
C=C1C(=O)OC2/C=C(\C)C(O)/C=C\C(C)(O)CC(OC(=O)/C(C)=C/C)C12 (configuration not stated)	TGI	> 100 µM
COc1cc([C@H]2Oc3c(c(O)cc4oc(-c5ccccc5)cc(=O)c34)O[C@@H]2CO)ccc1O	TGI	62.7 µM
O=C1C2=C(c3ccccc31)C(c1ccccc1Cl)N1C(=O)CSC1=N2 (configuration not stated)	TGI	> 100 µM
COc1ccc(NC(=O)C(=O)C2NC(=S)NC2=O)c(OC)c1 (configuration not stated)	TGI	> 100 µM
COc1cc(Br)c(CC2=NCCc3cc(OC)c(OC)cc32)cc1OC	TGI	> 100 µM
CCOC(=O)C(C[Si](C)(C)C)P(=O)(OCC)OCC (configuration not stated)	TGI	> 100 µM

---

Test system: SW-620 colon
Assay: NCI tumour cell line growth inhibition, 48 h
Use Yes when the recorded TGI is no lower than 30 µM; use No when it is lower.

Compound	Class Name
Oc1c(CN2CCCC2)cc(COCc2ccccc2)c2cccnc12	No
CCOC(=O)CCC(NC(=O)OCc1ccccc1)C(=O)NC(CCC(=O)OCC)C(=O)NC(CCC(=O)OCC)C(=O)NC(CCC(=O)OCC)C(=O)NC(CCC(=O)OCC)C(=O)OCC (stereo unspecified)	Yes
O=[N+]([O-])C1(C2([N+](=O)[O-])CCCC2)CCCC1	Yes
O=C(/C=C\c1ccnc2ccccc12)c1ccc([N+](=O)[O-])cc1	No
Cc1nc(NC(=O)N2CCC[C@H]2C(N)=O)sc1-c1ccnc(C(C)(C)C(F)(F)F)c1	Yes
CCOC(=O)C(C)(C)Oc1ccc2c(-c3ccc(Cl)cc3)cc(=O)oc2c1	Yes
C/C(=N\Nc1ccc([N+](=O)[O-])cc1)C(=O)N(C)Nc1ccccc1	Yes
COc1cc(C2C(C(=O)Nc3ccccc3)=C(C)NC(C)=C2C(=O)Nc2ccccc2)ccc1O	Yes
CCN(CC)CCCNC(=O)Cc1ccccc1Nc1c(Cl)cccc1Cl	Yes
CC(=O)Oc1c(OC(C)=O)c(-c2ccc(O)c(O)c2)c(O)c(O)c1-c1ccc(O)cc1	Yes
COc1cc(C2C(C#N)=C(N)OC3=C2C(=O)c2ccccc2C3=O)cc(OC)c1OC (stereo unspecified)	No
C=C1C(C)C2C(Cc3ccccc3)NC(=O)C23C(OC(C)=O)/C=C/C(C)(O)CC(C)C/C=C/C3C1O (stereo unspecified)	Yes
O=C(NNS(=O)(=O)c1cc(C(F)(F)F)cc(C(F)(F)F)c1)c1cnn(-c2ccc(Cl)cc2)c1C(F)(F)F	Yes
COc1ccc(/C=C2\N=C3SC=C(N)N3C2=O)cc1	No
COC(=O)C1(Cc2cccc(Cl)c2)CCCCCCN1C(=O)c1ccccc1 (stereo unspecified)	Yes
COc1ccc(/C=C2\COc3ccc(-c4ccccc4)cc3C2=O)cc1O	No
O=C(CCN1CCCC1)Nc1ccc2c(NCCCc3ccccc3)c3ccccc3nc2c1	No
CC#CC(=O)N1CCC[C@H]1c1nc(-c2ccc(C(=O)Nc3ccccn3)cc2)c2c(N)nccn12	Yes
Cc1nc(C(N)=S)sc1C(=O)/C=C/c1cccc(O)c1	Yes
COc1ccc(O)c2c1C(=O)CCCC2=O	Yes
Cc1n[nH]c(=O)n1N=C(c1ccccc1)c1ccccc1	Yes

---

Test system: SK-OV-3 ovarian
Assay: NCI tumour cell line growth inhibition, 48 h
Recorded TGI for the following compounds
Parameter Measured: TGI

Compound	Obs Value
Oc1ccc2ccccc2c1N=Nc1ccccc1	> 100 µM
COc1ccc(C2S/C(=C\c3ccc(OC)cc3OC)C(=O)N2NC(=O)Cc2ccccc2)cc1 (stereo unspecified)	> 100 µM
COC(=O)C1=C(C)NC(C)=C([N+](=O)[O-])C1c1cccc(NO)c1 (stereo unspecified)	> 85.6 µM
COc1ccc(C(=O)C=C2NCCN2)cc1	> 100 µM
C[C@@H]1OC(=O)C[C@H]2CC(=O)N(CCc3cn(S(=O)(=O)C(F)(F)F)c4ccccc34)C[C@@H]21	> 100 µM
Clc1nc2c(-c3cccs3)ncnc2n1Cc1ccccc1	> 95.4 µM
Cn1c(=O)c2[nH]c(COc3ccc(C(C)(C)C)cc3)nc2n(C)c1=O	> 100 µM
C#CCOC(=O)c1ccccc1OC(C)=O	> 100 µM
CC(C)C(N)(C(=O)O)c1ccccc1 (stereo unspecified)	> 100 µM
C=C(C)C1/C=C(/C(C)C)CC[C@]2(C)O[C@@H]2CC[C@H](C)CC1=O (stereo partly specified)	> 100 µM
CC(C)(C)OC(=O)N1CCC23CCCC2C(=O)CC=C13 (stereo unspecified)	> 100 µM

---

Test system: M14 melanoma
Test: NCI tumour cell line growth inhibition, 48 h
Use t when the recorded TGI is no lower than 20 µM; use f when it is lower.

Molecule	Class Name
CCOC(=O)C(C)(C)Oc1ccc2c(-c3ccc(Cl)cc3)cc(=O)oc2c1	t
C[C@@H]1CC[C@@]2(OC1)O[C@H]1C[C@H]3[C@@H]4CC=C5C[C@@H](O[C@@H]6O[C@H](CO)[C@@H](O[C@@H]7O[C@@H](CO)[C@H](O)[C@H]7O)[C@H](O)[C@H]6O[C@@H]6O[C@@H](C)[C@H](O)[C@@H](O)[C@H]6O)CC[C@]5(C)[C@H]4CC[C@]3(C)[C@H]1[C@@H]2C	f
Cc1nc2c(-c3ccccc3)[nH]c(C)c2c(=O)o1	t
CCNCCNc1cc(-c2ccc(F)cc2)c(C#N)c2nc3ccccc3n12	f
Cn1c(=O)c2[nH]c(COc3ccc(C(C)(C)C)cc3)nc2n(C)c1=O	t
CC/C(Cl)=N\OC(=O)Nc1ccc(C#N)cc1	t
Fc1ccccc1C1CC(C(c2ccccc2)c2ccccc2)=Nc2ccccc2S1 (stereo not drawn)	t
CC#CC(=O)N1CCC[C@H]1c1nc(-c2ccc(C(=O)Nc3ccccn3)cc2)c2c(N)nccn12	t

---

System: MCF7 breast
Assay: NCI tumour cell line growth inhibition, 48 h
Recorded GI50 for the following compounds

Structure Smiles	GI50
O=C1/C(=C/c2cccs2)CCC/C1=C\c1cccs1	0.529 µM
O=C(NNS(=O)(=O)c1cc(C(F)(F)F)cc(C(F)(F)F)c1)c1cnn(-c2ccc(Cl)cc2)c1C(F)(F)F	21.5 µM
Cn1ccnc1C(=O)/C=C/c1ccc(C(=O)Nc2nc3ccccc3[nH]2)cc1	0.9 µM
COc1ccc2c(c1)OC13Oc4cc(OC)ccc4C=C1CCCC3=C2	4.8 µM
N#Cc1nc(-c2ccccc2)oc1S(=O)(=O)N1CCOCC1	2.74 µM
Fc1ccc(-c2ncn(C3CCNCC3)c2-c2ccnc(Oc3cccc(F)c3)n2)cc1	7.38 µM
O=C(/C=C/c1cccc(Cl)c1)c1ccc(Cl)cc1Cl	3.49 µM
CCCC[C@@H](COC(=O)N(Cc1cccs1)Cc1cccs1)NC(=O)N[C@@H](CC(=O)OC)c1ccc2c(c1)OCO2	> 100 µM
COc1ccc(/C=C2\N=C3SC=C(N)N3C2=O)cc1	0.459 µM
CN(C)c1ccc(/C=C/c2ccnc3ccccc23)cc1	0.922 µM

---

Recorded TGI for the following molecules
System: 786-0 renal
Test: NCI tumour cell line growth inhibition, 48 h
Parameter Measured: TGI

Molecule	Parameter Measured	Obs Value
N#Cc1c(-c2ccc(Cl)cc2)c(C#N)c(=O)n(NS(=O)(=O)c2ccccc2)c1-c1ccccc1	TGI	> 25 µM
O=c1nc2cc(-c3ccccc3)[nH]c2nn1-c1c(Cl)cc(Cl)cc1Cl	TGI	> 100 µM
CCSC1=CC(=O)c2ccccc2C1=O	TGI	22.3 µM
C[C@@H]1C(O)CC[C@H](C)C12CC=CC2=O (some centres undefined)	TGI	> 100 µM
Cc1ccc(S(=O)(=O)N/N=C2\C=C[C@]3(CC2)C(=O)N(C)c2ccccc23)cc1	TGI	> 100 µM
Fc1ccccc1C1CC(C(c2ccccc2)c2ccccc2)=Nc2ccccc2S1 (centres undefined)	TGI	16.2 µM
CN1C[C@@H]2CCCN2P1Oc1cccc2cccnc12 (some centres undefined)	TGI	> 100 µM
CCOC(=O)C12CC1(C(=O)OCC)C1CCC2C1 (centres undefined)	TGI	> 100 µM
COc1nc(=O)n(C2CC(N=[N+]=[N-])C(CO)O2)cc1C (centres undefined)	TGI	> 100 µM
C=C1C(C)C2C(Cc3ccccc3)NC(=O)C23C(OC(C)=O)/C=C/C(C)(O)CC(C)C/C=C/C3C1O (centres undefined)	TGI	> 100 µM
Nc1c(C(=O)c2ccccc2)[nH]c(NCc2ccccc2)c1C(=S)Nc1ccccc1	TGI	> 100 µM
O=C(O)CCC1(c2ccccc2)NC(=O)NC1=O (centres undefined)	TGI	> 100 µM
CC/C(Cl)=N\OC(=O)Nc1ccc(C#N)cc1	TGI	23.5 µM
NC(CCCCNc1ccn(C2OC(CO)C(O)C2O)c(=O)n1)C(=O)O (centres undefined)	TGI	> 100 µM
CN(/N=C\c1ccc2ccccc2c1)C1=NCCCCN1	TGI	32.8 µM
O=C(/C=C/c1ccc(Cl)c(Cl)c1)Oc1ccc(/C=C2\CCCCC2=O)cc1	TGI	> 100 µM
CC12ON=C(c3ccccc3)N1C=CN1C(c3ccccc3)=NOC12 (centres undefined)	TGI	> 100 µM
CC(=O)c1cn(-c2ccc(Cl)cc2)c(=O)c2c(N)n[nH]c12	TGI	> 100 µM
CC(=O)/C(C)=N/N/C(N)=N\S(=O)(=O)c1cc(C(=O)Nc2ccccc2)c(Cl)cc1SCc1ccccc1	TGI	> 100 µM
C[C@@H]1CCC2[C@@H](C)C(=O)O[C@@H]3C4C[C@@H]1[C@@]23OO[C@@]4(C)O (some centres undefined)	TGI	> 100 µM
O=C(NNS(=O)(=O)c1cc(C(F)(F)F)cc(C(F)(F)F)c1)c1cnn(-c2ccc(Cl)cc2)c1C(F)(F)F	TGI	42.2 µM
C/C(=N\Nc1ccc([N+](=O)[O-])cc1)C(=O)N(C)Nc1ccccc1	TGI	> 100 µM
C=C(Cl)C(Cl)(CBr)CCC(Cl)C(C)(C)Cl (centres undefined)	TGI	1.32 µM
COC(=O)C1=C(C)NC(C)=C([N+](=O)[O-])C1c1cccc(NO)c1 (centres undefined)	TGI	> 87.9 µM
Cc1cc(=Nc2ccc3c(c2)c(N)cc(C)[n+]3C)nc(N)n1C	TGI	> 100 µM
NC(CSC(c1ccccc1)(c1ccccc1)c1ccc2ccccc2c1)C(=O)O (centres undefined)	TGI	1.19 µM
Cc1ccc(/C=N/Nc2ncccn2)s1	TGI	> 100 µM
C[Se]C(=O)CC1=C2C=C(F)C=CC2/C(=C\c2ccc(S(C)=O)cc2)C1C (centres undefined)	TGI	1.71 µM
CC1OC(O)C(O)C(O)C1O (centres undefined)	TGI	> 100 µM
Cc1cccc2c1C(=O)C(C1OC(=O)c3ccccc31)C2 (centres undefined)	TGI	> 100 µM
Cc1ccc2c(O)c3c(cc2c1)C(=O)c1c2c(cc(O)c1C3=O)C1(C)OC(O2)C(O)C(N(C)C)C1O (centres undefined)	TGI	1.6 µM
O=C(/C=C/c1ccco1)Nc1ncc(Cc2ccc(F)cc2)s1	TGI	> 100 µM
CC[C@@H]1OC2(C)CC(S(=O)(=O)c3ccccc3)CC1O2 (some centres undefined)	TGI	> 100 µM
O=C(/C=C/c1cccc(Cl)c1)c1ccc(Cl)cc1Cl	TGI	27.6 µM
